Quick reference: melting point of the listed items.
quantity_measured: melting point

>>> reported_measurement("C[C@@](O)(C(=O)Nc1ccc(S(=O)(=O)c2ccccc2NCCO)cc1Cl)C(F)(F)F")
"68 to 70 °C"
>>> reported_measurement("CC(C)(O)C(=O)Nc1ccc(Sc2ccc(NS(C)(=O)=O)cc2)cc1Cl")
"138 to 140 °C"
>>> reported_measurement("CC(C)(O)C(=O)Nc1ccc(S(=O)(=O)c2ccccc2)cc1F")
"155.5 to 156.5 °C"
>>> reported_measurement("CC(=O)Nc1cc(S(=O)(=O)c2ccccc2)ccc1NC(=O)C(C)(O)C(F)(F)F (stereo not drawn)")
"205 to 207 °C"
>>> reported_measurement("CC(C)(O)C(=O)Nc1ccc(Sc2ccccc2)cc1F")
"91 to 92.5 °C"
>>> reported_measurement("C[S+]([O-])c1ccccc1S(=O)(=O)c1ccc(NC(=O)[C@@](C)(O)C(F)(F)F)c(Cl)c1 (stereo partly drawn)")
"118 to 120 °C"
